- assay.summary: folding enthalpy; higher = less favourable; fluorescence melt of hairpins on a sequencing array, two-state fit
- recorded.conditions: sodium 0.088 M
test.readout: folding enthalpy

| seq.string | folding enthalpy |
| --- | --- |
| GCACACGAAAGTGTGTGC ((((((....)))..))) | -18.9 kcal/mol |

// next entry
Just so you know, measured folding enthalpy for GTCAGGGAAACCTGAC ((((((....)))))) came out at -32.5 kcal/mol

====

- assay.summary: folding enthalpy; higher = less favourable; fluorescence melt of hairpins on a sequencing array, two-state fit
- recorded.conditions: sodium 0.088 M
Everything with folding enthalpy lower than -20 kcal/mol is Criterion not met; everything else, including exactly -20 kcal/mol, is Criterion met.

stdin: Please check the record GAGTGAACGAAAGTTCTC (((..(((....)))))) and state if its folding enthalpy is at or above -20 kcal/mol.
stdout: Criterion met

stdin: Determine whether this sequence has folding enthalpy no lower than -20 kcal/mol: GAAAACGAAAGTTCTTTC ((((((....)))..)))
stdout: Criterion met
